For each record, write down the corresponding growth at 40 µg/mL.
Test system: A549
Test: Anticancer activity against human A549 cells assessed as cell growth at 40 ug/mL by sulforhodamine B assay
Assay type: functional
Conditions: read-out: Activity
Numeric answer only, unit % assumed.

Item C(=C\C1CC(c2ccc3[nH]c4c(c3c2)CCCC4)=NN1)/c1ccccc1 (configuration not stated) ; assay system A549; growth at 40 µg/mL reported as 88.4

Item Oc1ccccc1C1CC(c2ccc3[nH]c4c(c3c2)CCCC4)=NN1 (configuration not stated) ; assay system A549; growth at 40 µg/mL reported as -18.5

Item Oc1ccc(C2CC(c3ccc4[nH]c5c(c4c3)CCCC5)=NN2)cc1 (configuration not stated) ; assay system A549; growth at 40 µg/mL reported as 67.1

Item CC1CC(c2ccc3[nH]c4c(c3c2)CCCC4)=NN1 (configuration not stated) ; assay system A549; growth at 40 µg/mL reported as 75.7

Item Clc1ccccc1C1CC(c2ccc3[nH]c4c(c3c2)CCCC4)=NN1 (configuration not stated) ; assay system A549; growth at 40 µg/mL reported as 75.7

Item c1ccc(C2CC(c3ccc4[nH]c5c(c4c3)CCCC5)=NN2)cc1 (configuration not stated) ; assay system A549; growth at 40 µg/mL reported as 88.4

Item Cc1ccc(C2CC(c3ccc4[nH]c5c(c4c3)CCCC5)=NN2)cc1 (configuration not stated) ; assay system A549; growth at 40 µg/mL reported as -18.5

Item COc1ccc(C2CC(c3ccc4[nH]c5c(c4c3)CCCC5)=NN2)cc1 (configuration not stated) ; assay system A549; growth at 40 µg/mL reported as 69.4

Item COc1cccc2c1C(=O)c1c(O)c3c(c(O)c1C2=O)C[C@@](O)(C(=O)CO)C[C@@H]3O[C@H]1C[C@H](N)[C@H](O)[C@H](C)O1 [DOXORUBICIN] ; assay system A549; growth at 40 µg/mL reported as -39.5

Item Clc1cccc(C2CC(c3ccc4[nH]c5c(c4c3)CCCC5)=NN2)c1 (configuration not stated) ; assay system A549; growth at 40 µg/mL reported as 69.4

Item O=[N+]([O-])c1ccc(C2CC(c3ccc4[nH]c5c(c4c3)CCCC5)=NN2)cc1 (configuration not stated) ; assay system A549; growth at 40 µg/mL reported as 50.4

Item Clc1ccc(C2CC(c3ccc4[nH]c5c(c4c3)CCCC5)=NN2)cc1 (configuration not stated) ; assay system A549; growth at 40 µg/mL reported as 67.1
